Reported Western blot residual DSG2 binding (wtAd3 knob = 100%) values are given for each entry in this list.
- assayedTarget: T1, Recombinant human DSG2 protein (Leinco Technologies) (human, UniProt Q14126 50-609)
- T1 construct: also called soluble DSG2; soluble recombinant DSG2
- T1 sequence: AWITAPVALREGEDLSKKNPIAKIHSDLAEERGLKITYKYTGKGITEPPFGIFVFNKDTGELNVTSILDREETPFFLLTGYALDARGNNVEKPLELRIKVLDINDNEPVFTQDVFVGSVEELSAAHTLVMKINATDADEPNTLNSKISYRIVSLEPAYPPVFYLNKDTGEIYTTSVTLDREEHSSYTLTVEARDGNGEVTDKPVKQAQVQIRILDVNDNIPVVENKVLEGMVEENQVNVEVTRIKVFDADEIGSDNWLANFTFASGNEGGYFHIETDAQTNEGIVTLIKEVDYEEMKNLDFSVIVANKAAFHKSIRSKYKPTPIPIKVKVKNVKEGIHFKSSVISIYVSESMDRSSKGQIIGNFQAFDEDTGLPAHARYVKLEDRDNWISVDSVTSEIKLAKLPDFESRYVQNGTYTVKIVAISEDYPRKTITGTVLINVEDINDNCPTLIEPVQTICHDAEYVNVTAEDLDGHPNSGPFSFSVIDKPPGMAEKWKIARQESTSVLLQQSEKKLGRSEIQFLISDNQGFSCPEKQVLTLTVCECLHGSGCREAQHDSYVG
- test: Western blot of dimeric knob (trimer band), soluble recombinant DSG2 as probe, anti-DSG2 mAb
# output: bare number, implied unit %

The cases that follow already have their Western blot residual DSG2 binding (wtAd3 knob = 100%) on record.
binder: dimeric Ad3 fiber knob mutant S190P (designed binder, also called 5190P [sic]) MKVSALKEKVSALKEKVSALKEKVSALKEKVSALKEGSGGGSGGGSGGGSNSIALKNNTLWTGPKPEANCIIEYGKQNPDSKLTLILVKNGGIVNGYVTLMGASDYVNTLFKNKNVPINVELYFDATGHILPDSSSLKTDLELKYKQTADFSARGFMPSTTAYPFVLPNAGTHNENYIFGQCYYKASDGALFPLEVTVMLNKRLPDSRTSYVMTFLWSLNAGLAPETTQATLITSPFTFSYIREDD
unitAbbrev: %
reportedResult: 7.1
--
binder: dimeric Ad3 fiber knob mutant L296R (designed binder) MKVSALKEKVSALKEKVSALKEKVSALKEKVSALKEGSGGGSGGGSGGGSNSIALKNNTLWTGPKPEANCIIEYGKQNPDSKLTLILVKNGGIVNGYVTLMGASDYVNTLFKNKNVSINVELYFDATGHILPDSSSLKTDLELKYKQTADFSARGFMPSTTAYPFVLPNAGTHNENYIFGQCYYKASDGALFPLEVTVMLNKRLPDSRTSYVMTFLWSLNAGRAPETTQATLITSPFTFSYIREDD
unitAbbrev: %
reportedResult: 3.6
--
binder: dimeric Ad3 fiber knob mutant F265L (designed binder) MKVSALKEKVSALKEKVSALKEKVSALKEKVSALKEGSGGGSGGGSGGGSNSIALKNNTLWTGPKPEANCIIEYGKQNPDSKLTLILVKNGGIVNGYVTLMGASDYVNTLFKNKNVSINVELYFDATGHILPDSSSLKTDLELKYKQTADFSARGFMPSTTAYPFVLPNAGTHNENYIFGQCYYKASDGALLPLEVTVMLNKRLPDSRTSYVMTFLWSLNAGLAPETTQATLITSPFTFSYIREDD
unitAbbrev: %
reportedResult: 0

Task: Entry dimeric Ad3 fiber knob mutant V189G (designed binder) MKVSALKEKVSALKEKVSALKEKVSALKEKVSALKEGSGGGSGGGSGGGSNSIALKNNTLWTGPKPEANCIIEYGKQNPDSKLTLILVKNGGIVNGYVTLMGASDYVNTLFKNKNGSINVELYFDATGHILPDSSSLKTDLELKYKQTADFSARGFMPSTTAYPFVLPNAGTHNENYIFGQCYYKASDGALFPLEVTVMLNKRLPDSRTSYVMTFLWSLNAGLAPETTQATLITSPFTFSYIREDD has what Western blot residual DSG2 binding (wtAd3 knob = 100%)?
Output: 14

Task: Same for dimeric Ad3 fiber knob mutant E299V (designed binder) MKVSALKEKVSALKEKVSALKEKVSALKEKVSALKEGSGGGSGGGSGGGSNSIALKNNTLWTGPKPEANCIIEYGKQNPDSKLTLILVKNGGIVNGYVTLMGASDYVNTLFKNKNVSINVELYFDATGHILPDSSSLKTDLELKYKQTADFSARGFMPSTTAYPFVLPNAGTHNENYIFGQCYYKASDGALFPLEVTVMLNKRLPDSRTSYVMTFLWSLNAGLAPVTTQATLITSPFTFSYIREDD
Output: 20

Task: // query: dimeric Ad3 fiber knob mutant D261N (designed binder) MKVSALKEKVSALKEKVSALKEKVSALKEKVSALKEGSGGGSGGGSGGGSNSIALKNNTLWTGPKPEANCIIEYGKQNPDSKLTLILVKNGGIVNGYVTLMGASDYVNTLFKNKNVSINVELYFDATGHILPDSSSLKTDLELKYKQTADFSARGFMPSTTAYPFVLPNAGTHNENYIFGQCYYKASNGALFPLEVTVMLNKRLPDSRTSYVMTFLWSLNAGLAPETTQATLITSPFTFSYIREDD
Output: 0

Task: Query dimeric Ad3 fiber knob mutant N186D (designed binder) MKVSALKEKVSALKEKVSALKEKVSALKEKVSALKEGSGGGSGGGSGGGSNSIALKNNTLWTGPKPEANCIIEYGKQNPDSKLTLILVKNGGIVNGYVTLMGASDYVNTLFKDKNVSINVELYFDATGHILPDSSSLKTDLELKYKQTADFSARGFMPSTTAYPFVLPNAGTHNENYIFGQCYYKASDGALFPLEVTVMLNKRLPDSRTSYVMTFLWSLNAGLAPETTQATLITSPFTFSYIREDD next
Output: 5.3
